# procedure-summary: physchem
# experimental-setup: aqueous buffer
readout-kind: solubility

* COc1ccc(N2CCN(CCCNC(=O)Cn3c(=O)c4cccn4c4c(C)ccnc43)CC2)cc1 [Compound 1{3}] | > 90 µg/mL

* * *

# target-system: H4 (Homo sapiens)
# Sequence (Q9H3N8 whole entry): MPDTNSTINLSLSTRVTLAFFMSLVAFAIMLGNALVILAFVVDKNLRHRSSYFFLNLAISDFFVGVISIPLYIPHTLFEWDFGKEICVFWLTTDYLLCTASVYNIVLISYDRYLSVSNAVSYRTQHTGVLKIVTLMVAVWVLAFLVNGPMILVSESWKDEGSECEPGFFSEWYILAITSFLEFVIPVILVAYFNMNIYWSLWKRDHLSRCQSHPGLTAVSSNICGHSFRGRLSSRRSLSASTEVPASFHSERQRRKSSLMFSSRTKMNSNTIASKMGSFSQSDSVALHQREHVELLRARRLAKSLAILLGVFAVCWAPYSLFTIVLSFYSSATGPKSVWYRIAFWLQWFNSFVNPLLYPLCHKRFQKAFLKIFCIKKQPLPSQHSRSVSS
# procedure-summary: PDSP radioligand binding assay
# experimental-setup: Table 10
readout-kind: Ki

- Clc1ccc(CSc2nnc(-c3ccccn3)n2Cc2ccco2)cc1Cl: > 10 µM

* * *

# target-system: H3 (Homo sapiens, UniProt Q9Y5N1)
# Sequence (Q9Y5N1 whole entry): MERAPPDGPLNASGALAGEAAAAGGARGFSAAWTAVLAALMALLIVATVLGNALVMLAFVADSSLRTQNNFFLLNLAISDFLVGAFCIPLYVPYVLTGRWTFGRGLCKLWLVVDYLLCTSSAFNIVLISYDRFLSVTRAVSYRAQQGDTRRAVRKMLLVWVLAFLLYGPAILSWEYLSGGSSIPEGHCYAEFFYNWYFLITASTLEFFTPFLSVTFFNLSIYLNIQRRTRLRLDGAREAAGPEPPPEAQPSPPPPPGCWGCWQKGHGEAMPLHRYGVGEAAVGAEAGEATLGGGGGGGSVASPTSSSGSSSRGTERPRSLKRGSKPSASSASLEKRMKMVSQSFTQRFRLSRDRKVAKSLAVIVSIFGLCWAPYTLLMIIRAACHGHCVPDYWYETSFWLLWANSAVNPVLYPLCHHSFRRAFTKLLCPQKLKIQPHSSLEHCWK
# procedure-summary: PDSP radioligand binding assay
# experimental-setup: Table 5
pKi: −log10 of the molar value.
readout-kind: pKi

• COc1ccc(N2CCN(CCCNC(=O)Cn3c(=O)c4cccn4c4c(C)ccnc43)CC2)cc1 = < 5.00

* * *

# target-system: KOP receptor (Homo sapiens)
# procedure-summary: ERK 1/2 activation, inhibition
# Format: cell-based
# experimental-setup: n ≧ 3 curves, replicates of 6
readout-kind: IC50 (µM)

- COc1ccc(N2CCN(CCCNC(=O)Cn3c(=O)c4cccn4c4ccccc43)CC2)cc1 [Compound 1{1}]: 0.065

* * *

# target-system: Alpha1D (Homo sapiens)
# Sequence (P25100 1-572): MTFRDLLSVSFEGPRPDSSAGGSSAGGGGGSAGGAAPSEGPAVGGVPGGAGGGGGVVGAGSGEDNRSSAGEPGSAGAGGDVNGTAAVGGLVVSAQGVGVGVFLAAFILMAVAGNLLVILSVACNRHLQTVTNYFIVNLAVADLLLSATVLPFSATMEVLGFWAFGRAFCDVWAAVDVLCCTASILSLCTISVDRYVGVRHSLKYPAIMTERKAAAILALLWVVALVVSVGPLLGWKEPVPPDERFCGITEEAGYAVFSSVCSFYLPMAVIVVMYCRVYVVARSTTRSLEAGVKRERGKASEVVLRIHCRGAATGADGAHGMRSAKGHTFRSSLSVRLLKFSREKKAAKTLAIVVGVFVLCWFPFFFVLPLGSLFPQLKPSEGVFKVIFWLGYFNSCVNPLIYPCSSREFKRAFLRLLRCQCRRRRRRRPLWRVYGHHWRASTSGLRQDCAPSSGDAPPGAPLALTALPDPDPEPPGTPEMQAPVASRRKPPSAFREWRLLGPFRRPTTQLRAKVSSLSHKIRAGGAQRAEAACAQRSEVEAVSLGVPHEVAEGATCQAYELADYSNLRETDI
# procedure-summary: PDSP radioligand binding assay
# experimental-setup: Table 5
readout-kind: Ki

- COc1ccc(N2CCN(CCCNC(=O)Cn3c(=O)c4cccn4c4c(C)ccnc43)CC2)cc1 [Compound 1{3}]: > 10 µM

* * *

# target-system: Alpha2C (Homo sapiens, UniProt P18825)
# Sequence (P18825 whole entry): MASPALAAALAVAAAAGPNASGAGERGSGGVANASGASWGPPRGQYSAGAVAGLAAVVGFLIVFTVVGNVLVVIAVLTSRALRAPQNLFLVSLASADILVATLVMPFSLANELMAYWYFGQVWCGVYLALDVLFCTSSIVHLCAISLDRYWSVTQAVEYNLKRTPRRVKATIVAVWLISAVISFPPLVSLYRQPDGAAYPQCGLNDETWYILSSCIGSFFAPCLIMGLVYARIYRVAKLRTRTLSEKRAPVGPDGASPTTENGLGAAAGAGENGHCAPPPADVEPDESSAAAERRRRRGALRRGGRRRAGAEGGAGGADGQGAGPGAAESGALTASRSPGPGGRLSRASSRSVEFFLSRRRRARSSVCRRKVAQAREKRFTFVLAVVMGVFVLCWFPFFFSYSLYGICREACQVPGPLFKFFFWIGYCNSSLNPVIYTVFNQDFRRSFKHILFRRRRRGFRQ
# procedure-summary: PDSP radioligand binding assay
# experimental-setup: Table 5
pKi: −log10 of the molar value.
readout-kind: pKi

- COc1ccc(N2CCN(CCCNC(=O)Cn3c(=O)c4cccn4c4c(C)ccnc43)CC2)cc1: 6.16

* * *

# target-system: KOP receptor (Homo sapiens, UniProt P41145)
# Sequence (P41145 whole entry): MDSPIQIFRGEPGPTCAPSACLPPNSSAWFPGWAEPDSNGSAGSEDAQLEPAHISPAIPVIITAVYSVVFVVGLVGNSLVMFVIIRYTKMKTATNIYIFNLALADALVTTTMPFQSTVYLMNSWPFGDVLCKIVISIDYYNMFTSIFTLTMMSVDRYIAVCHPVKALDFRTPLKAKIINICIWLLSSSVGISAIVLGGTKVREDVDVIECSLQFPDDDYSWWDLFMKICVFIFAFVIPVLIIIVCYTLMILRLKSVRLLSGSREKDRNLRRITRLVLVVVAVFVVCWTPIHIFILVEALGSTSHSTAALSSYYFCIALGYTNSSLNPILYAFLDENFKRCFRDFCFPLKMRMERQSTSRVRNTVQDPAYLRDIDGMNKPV
# procedure-summary: 35S-GTPγS coupling, inhibition
# Assay type: biochemical
# experimental-setup: n ≧ 3 curves in duplicate
pIC50: −log10 of the molar value.
readout-kind: pIC50

• COc1ccc(N2CCN(CCCNC(=O)Cn3c(=O)c4cccn4c4ccccc43)CC2)cc1 = 7.02

* * *

# target-system: MOR (Homo sapiens)
# Sequence (P35372 whole entry): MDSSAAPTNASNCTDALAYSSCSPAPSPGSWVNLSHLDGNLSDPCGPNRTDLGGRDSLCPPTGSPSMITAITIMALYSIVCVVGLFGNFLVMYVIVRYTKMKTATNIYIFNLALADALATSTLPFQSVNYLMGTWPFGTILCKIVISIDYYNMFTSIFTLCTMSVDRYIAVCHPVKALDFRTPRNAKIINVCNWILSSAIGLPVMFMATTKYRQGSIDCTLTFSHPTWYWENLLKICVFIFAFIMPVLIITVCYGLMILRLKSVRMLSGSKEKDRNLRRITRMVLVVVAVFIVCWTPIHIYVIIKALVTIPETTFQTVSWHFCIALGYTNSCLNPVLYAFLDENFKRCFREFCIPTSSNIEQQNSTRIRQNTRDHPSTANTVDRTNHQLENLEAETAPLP
# procedure-summary: PDSP radioligand binding assay
# experimental-setup: Table 10, average of separate Ki determinations
readout-kind: Ki (nM)

- Clc1ccc(CSc2nnc(-c3ccccn3)n2Cc2ccco2)cc1Cl [Compound 2{8}]: 1900
